In this section we review reported IC50 values for a set of molecules.
tgt: Cytochrome P450 2C9 (Homo sapiens)
Sequence (P11712 whole entry): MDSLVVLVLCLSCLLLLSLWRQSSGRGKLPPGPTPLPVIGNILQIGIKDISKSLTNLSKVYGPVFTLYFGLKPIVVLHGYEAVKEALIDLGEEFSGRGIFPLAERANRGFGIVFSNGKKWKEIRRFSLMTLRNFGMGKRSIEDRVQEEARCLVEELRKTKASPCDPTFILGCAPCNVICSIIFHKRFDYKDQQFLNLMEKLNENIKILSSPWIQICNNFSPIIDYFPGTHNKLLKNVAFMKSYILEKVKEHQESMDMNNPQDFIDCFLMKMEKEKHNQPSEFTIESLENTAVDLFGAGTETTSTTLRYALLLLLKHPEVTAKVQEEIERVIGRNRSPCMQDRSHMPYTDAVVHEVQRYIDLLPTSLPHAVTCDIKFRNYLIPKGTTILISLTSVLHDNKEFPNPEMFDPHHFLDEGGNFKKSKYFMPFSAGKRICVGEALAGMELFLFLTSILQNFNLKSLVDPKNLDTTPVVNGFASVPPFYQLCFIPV

test-smiles	result
Nc1nc2c(C(=O)NCc3ccc(Cl)c(Cl)c3)cc(O)c(O)c2s1	> 25 µM

// query Observed IC50 on Cytochrome P450 2C9 (Homo sapiens) for Nc1nc2ccc(C(=O)NCc3ccccc3[N+](=O)[O-])cc2s1 , please.
// result > 25 µM

// query Please provide the recorded IC50 for COC(=O)c1ccc(CNC(=O)c2ccc3nc(N)sc3c2)cc1 , tested on Cytochrome P450 2C9 (Homo sapiens).
// result 10 to 25 µM

###

test-protocol: Half-life in BALB/c mouse at 20 mg/kg, po co-formulated with hydroxypropyl-beta-cyclodextrin by LC-MS analysis
Type: ADME, organism-based
study-conditions: in vivo
assay-endpoint: half-life

// query Tell me the measured half-life of Nc1nc2ccc(C(=O)NCc3ccccc3)cc2s1 , please.
// result 34.8 h
